# Measurement Target: KCNQ2/3 channels (Homo sapiens, UniProt O43525+O43526)
# Construct: expressed in transfected cells
# Method Summary: Fluorescence assay using a voltage sensitive dye (fluorimetry)
# Assay type: cell-based
# Conditions: CHO-K1 cells expressing KCNQ2/3 channels; relative to retigabine = 100%; read-out: Fluorimetry % efficacy (retigabine = 100%)
# Procedure: Method I. Fluorescence Assay Using a Voltage Sensitive Dye (Fluorimetry) […] Before being sown out for the measurements, the cells are washed with 1×DPBS buffer Ca^2+/Mg^2+-free (e.g. Invitrogen, #14190-094) and detached from the bottom of the culture vessel by using Accutase (PAA Laboratories, #L11-007) (incubation with Accutase for 15 min at 37° C.). The cell number is determined using a CASY™ cell counter (TCC, Schärfe System). […]
Measured Attribute: Emax (%)
Report only the number, with the unit % understood.

Which Emax is reported with KCNQ2/3 channels (Homo sapiens, UniProt O43525+O43526) for this entry: "CCCc1nc2cc(C(F)(F)F)ccc2c(C)c1C(=O)NCc1ccc(F)cc1" ?
126

---

# Measurement Target: KCNQ2/3 channels (Homo sapiens, UniProt O43525+O43526)
# Construct: expressed in transfected cells
# Method Summary: Fluorescence assay using a voltage sensitive dye (fluorimetry)
# Format: cell-based
# Conditions: CHO-K1 cells expressing KCNQ2/3 channels; relative to retigabine = 100%; read-out: Fluorimetry % efficacy (retigabine = 100%)
Entries annotated with measured Emax
Report only the number, with the unit % understood.

[
  {
    "Molecule": "CCc1nc2cc(C(F)(F)F)ccc2c(C)c1C(=O)NCc1cccc(F)c1 [Example 6]",
    "Emax (%)": 177
  },
  {
    "Molecule": "Cc1c(C(=O)NCc2ccc(F)cc2)c(C(C)C)nc2cc(C#N)ccc12 [Example 40]",
    "Emax (%)": 163
  }
]

Switching to the query record.
Which Emax is reported with KCNQ2/3 channels (Homo sapiens, UniProt O43525+O43526) for this entry: CC(C)(C)c1nc2cc(C(F)(F)F)ccc2cc1C(=O)NCc1cccc(F)c1 [Example 13] ?
125

---

Entries annotated with measured Emax
# Measurement Target: KCNQ2/3 channels (Homo sapiens, UniProt O43525+O43526)
# Construct: expressed in transfected cells
# Method Summary: Fluorescence assay using a voltage sensitive dye (fluorimetry)
# Type: cell-based
# Conditions: CHO-K1 cells expressing KCNQ2/3 channels; relative to retigabine = 100%; read-out: Fluorimetry % efficacy (retigabine = 100%)
Report only the number, with the unit % understood.

The cases that follow already have their Emax on record.
[
  {
    "Smiles Structure": "COCc1nc2cc(C(F)(F)F)ccc2c(C)c1C(=O)NCc1ccc(F)cc1",
    "Emax (%)": 96
  },
  {
    "Smiles Structure": "CCCc1nc2cc(C(F)(F)F)ccc2c(C)c1C(=O)NCC1CCCCCC1",
    "Emax (%)": 104
  },
  {
    "Smiles Structure": "Cc1c(C(=O)NCc2cccc(F)c2)c(C(C)C)nc2cc(C#N)ccc12",
    "Emax (%)": 174
  },
  {
    "Smiles Structure": "CCc1nc2cc(C(F)(F)F)ccc2c(C)c1C(=O)NCc1ccc(C)c(F)c1",
    "Emax (%)": 139
  },
  {
    "Smiles Structure": "Cc1c(C(=O)NCc2cccc(F)c2)c(C2CC2)nc2cc(C(F)(F)F)ccc12",
    "Emax (%)": 182
  },
  {
    "Smiles Structure": "CC(C)c1nc2cc(C(F)(F)F)ccc2cc1C(=O)NCc1cccc(F)c1",
    "Emax (%)": 166
  },
  {
    "Smiles Structure": "CCc1nc2cc(C#N)ccc2c(C)c1C(=O)NCc1cccc(F)c1",
    "Emax (%)": 121
  },
  {
    "Smiles Structure": "CC(C)=Cc1nc2cc(C(F)(F)F)ccc2c(C)c1C(=O)NCc1cccc(F)c1",
    "Emax (%)": 171
  },
  {
    "Smiles Structure": "Cc1c(C(=O)NCc2ccc(F)cc2)c(CC(C)(C)C)nc2cc(C(F)(F)F)ccc12",
    "Emax (%)": 149
  },
  {
    "Smiles Structure": "CCc1nc2cc(C#N)ccc2c(C)c1C(=O)NCc1ccc(F)cc1",
    "Emax (%)": 97
  }
]

Switching to the query record.
Record request: Emax value, item "Cc1c(C(=O)NCc2ccc(F)cc2)c(C2CC2)nc2cc(C#N)ccc12"
122

---

Entries annotated with measured Emax
# Measurement Target: KCNQ2/3 channels (Homo sapiens, UniProt O43525+O43526)
# Construct: expressed in transfected cells
# Method Summary: Fluorescence assay using a voltage sensitive dye (fluorimetry)
# Assay type: cell-based
# Conditions: CHO-K1 cells expressing KCNQ2/3 channels; relative to retigabine = 100%; read-out: Fluorimetry % efficacy (retigabine = 100%)
Answer with the number, then the unit.

The cases that follow already have their Emax on record.
[
  {
    "Smiles Structure": "CCCc1nc2cc(C(F)(F)F)ccc2c(C)c1C(=O)NCCCC(C)(C)C",
    "Measurement Target": "KCNQ2/3 channels (Homo sapiens, UniProt O43525+O43526)",
    "Emax": "277%"
  },
  {
    "Smiles Structure": "Cc1c(C(=O)NCc2cccc(F)c2)c(C2CCCC2)nc2cc(C(F)(F)F)ccc12",
    "Measurement Target": "KCNQ2/3 channels (Homo sapiens, UniProt O43525+O43526)",
    "Emax": "185%"
  },
  {
    "Smiles Structure": "CCc1nc2cc(C(F)(F)F)ccc2c(C)c1C(=O)NCc1ccc(F)cc1",
    "Measurement Target": "KCNQ2/3 channels (Homo sapiens, UniProt O43525+O43526)",
    "Emax": "157%"
  }
]

Record request: Emax value, item "CCCc1nc2cc(C(F)(F)F)ccc2c(C)c1C(=O)NCc1cccs1"
140%

Record request: Emax value, item "Cc1c(C(=O)NCc2ccc(F)cc2)c(C2CCCC2)nc2cc(C(F)(F)F)ccc12"
178%

Record request: Emax value, item "CCCc1nc2cc(C(F)(F)F)ccc2c(C)c1C(=O)NCc1cccc(F)c1"
138%
